tested on: UACC-62 melanoma; experiment: NCI tumour cell line growth inhibition, 48 h
measurement-type: GI50

| compound | measurement-type | recorded-value |
| --- | --- | --- |
| Cc1cnc(C(=O)Nc2nc3ccc(S(=O)(=O)Nc4ccc(C(C)(C)C)cc4)cc3[nH]2)cn1 | GI50 | 0.537 µM |
| O=C1c2ccccc2-c2cn(Cc3ccccc3)c3cccc(c23)C1c1cccnc1 (stereo not given) | GI50 | 2.73 µM |
| COc1ccc(/C=C\c2cc(OC)c(OC)c(OC)c2)cc1NC(=O)/C=C/c1cc(OC)c(OC)c(OC)c1 | GI50 | 2.8 µM |
| NS(=O)(=O)c1cccc(Nc2cc(-c3ccc(F)cc3)[nH]n2)c1 | GI50 | > 21.1 µM |

Here is another compound to look at.
# return recorded GI50 for entry `Cc1ccc(C)c(N2CCN(c3ccncc3N)CC2)c1`
13.9 µM

* * *

system: SNB-19 CNS; test: NCI tumour cell line growth inhibition, 48 h
measurement-type: TGI

| molecule | recorded-value |
| --- | --- |
| CCOC(=O)c1c(NS(=O)(=O)c2ccccc2)sc2c1CCCC2 | > 100 µM |

# return recorded TGI for entry `CC/C(=C/c1ccc(OC)cc1)[N+](=O)[O-]`
7.93 µM

# return recorded TGI for entry `CN(C)CCCn1c(-c2ccc(Br)cc2)csc1=Nc1ccccc1`
31.6 µM

# return recorded TGI for entry `COc1ccc2nc(-c3ccc(N)cc3)sc2c1`
> 100 µM

# return recorded TGI for entry CN1N=C(c2ccncc2)OC1c1ccc(C(F)(F)F)cc1 (centres undefined)
> 100 µM

# return recorded TGI for entry `Cc1csc(NCc2ccc(Cl)cc2)n1`
> 100 µM

# return recorded TGI for entry CC(=O)N(C(=O)CC(=O)N1N=C(C)C(N=Nc2cccc([N+](=O)[O-])c2)C1=O)c1ccc(Cl)cc1 (centres undefined)
> 10 µM

* * *

tested on: M14 melanoma; assay: NCI tumour cell line growth inhibition, 48 h
measurement-type: TGI

Example entries begin here.
| compound | TGI |
| --- | --- |
| CCOC(=O)C(Oc1ccc(OC)c2c1C(=O)CCC2)c1ccccc1 (configuration not stated) | > 100 µM |
| Cc1csc(NCc2ccc(Cl)cc2)n1 | > 100 µM |
| Cc1ccc2nc(CN(CCN(Cc3nc4ccc(C)cc4[nH]3)Cc3nc4ccc(C)cc4[nH]3)Cc3nc4ccc(C)cc4[nH]3)[nH]c2c1 | 3.1 µM |
| COc1cc2c(cc1C)NC(=O)/C2=C/c1c(Cl)[nH]c2ccccc12 | 13.3 µM |
| COc1ccc(N2C(=O)[C@@H]3[C@@H]4CC(C)CC[C@@H]4c4c([nH]c5ccccc45)[C@@H]3C2=O)cc1 (some centres not stated) | > 74.9 µM |
| CCOC(=O)C(=O)CC(=O)C(Br)C(Br)c1ccc(Cl)cc1 (configuration not stated) | 50.7 µM |

Here is another compound to look at.
# return recorded TGI for entry `CSC(SC)=C(C#N)C(=O)Nc1ccc(Cl)cc1`
> 100 µM

* * *

Let's look at some compounds and their measured TGI.
tested on: DMS 273 small cell lung; assay: NCI tumour cell line growth inhibition, 48 h
Give the value in µM but do not write µM after it.

Example entries begin here.
| compound | assay-target | TGI (µM) |
| --- | --- | --- |
| CC1OC(O[C@@H]2C=C3CC[C@@H]4[C@H](CC[C@]5(C)[C@@H](c6ccc(=O)oc6)CC[C@]45O)[C@@]3(C)CC2)C(O)C(O)C1O (stereo not given in full) | DMS 273 small cell lung | 0.003 |
| CCOC(=O)C1=C(C)N(NC(=O)Nc2ccccc2)C2(N)N(NC(=O)Nc3ccccc3)C(C)=C(C(=O)OCC)C12C#N (stereo not given) | DMS 273 small cell lung | 31.3 |

Here is another compound to look at.
# return recorded TGI for entry CC(=O)OC1(C(C)=O)CC2(c3ccccc3)OC1(c1ccccc1)c1ccccc12 (stereo not given)
22.2

* * *

test system: SK-OV-3 ovarian; assay: NCI tumour cell line growth inhibition, 48 h
Let's look at some molecules and their measured TGI.

Example entries begin here.
| molecule | TGI |
| --- | --- |
| Cc1c(CCCl)c(Cl)n2c(nc3ccccc32)c1C#N | > 56.4 µM |
| COc1ccc(/C=C(\C#N)c2ccccn2)cc1OC | > 100 µM |
| CN(N=O)c1ccc(/C=C/c2ccnc3ccccc23)cc1 | > 100 µM |
| CC(=O)OC1COC(N2C(=O)C(=O)c3ccccc32)C(OC(C)=O)C1OC(C)=O (stereo not given) | > 100 µM |

Using SK-OV-3 ovarian as the test system, report measured TGI of `COc1ccc2nc(-c3ccc(N)cc3)sc2c1` .
> 100 µM

* * *

test system: K-562 leukemia; assay: NCI tumour cell line growth inhibition, 48 h
measurement-type: TGI

Example entries begin here.
| compound | TGI |
| --- | --- |
| O=C1OCOC2(CCCC2)C1c1ccccc1 (configuration not stated) | > 100 µM |
| CCc1nnc2sc(-c3ccc(-c4ccccc4[N+](=O)[O-])o3)nn12 | > 100 µM |
| O=C(C=P(c1ccccc1)(c1ccccc1)c1ccccc1)c1ccccc1-c1ccccc1C(=O)C=P(c1ccccc1)(c1ccccc1)c1ccccc1 | 0.0905 µM |
| O=C(Cn1c(=O)oc2ccccc21)N(c1ccccc1)c1ccccc1 | > 100 µM |
| COC(=O)[C@]12CC[C@@H](C)[C@H](C)[C@@H]1C1=CC[C@@H]3[C@@]4(C)C[C@@H](OC(C)=O)[C@H](OC(C)=O)[C@@](C)(COC(C)=O)[C@@H]4[C@H](O)C[C@@]3(C)[C@]1(C)CC2 | > 100 µM |
| Cc1ccc(-c2ccc3c(c2)Sc2ccccc2O3)n1C | > 100 µM |
| CCC(CCCC[C@H]1CC[C@@H]2CC(=O)C[C@H]12)OC (some centres not stated) | > 100 µM |
| O=C(CC1(O)C(=O)Nc2ccccc21)c1cccc(O)c1 (configuration not stated) | > 100 µM |

# return recorded TGI for entry `Cc1n[nH]c(=O)c2c3c([nH]c12)-c1ccccc1C3`
> 100 µM

# return recorded TGI for entry `O=C1c2ccccc2C(=O)c2c1ccc1c3ccccc3n(-c3ccccc3)c21`
29.8 µM

# return recorded TGI for entry CC(=O)N(C(=O)CC(=O)N1N=C(C)C(N=Nc2cccc([N+](=O)[O-])c2)C1=O)c1ccc(Cl)cc1 (configuration not stated)
> 10 µM

# return recorded TGI for entry `O=C(NCCN1CCOCC1)c1cc2c(Oc3ccc(NC(=O)C4(C(=O)Nc5ccc(F)cc5)CC4)cc3)ccnc2[nH]1`
42.2 µM

# return recorded TGI for entry `C=C(CN1CCN(c2cc(C(F)(F)F)cc(C(F)(F)F)c2)CC1)c1ccc(C(=O)Nc2ccccc2N)cc1`
> 100 µM

# return recorded TGI for entry `O=C1CCNC/C1=C\c1ccccc1`
> 100 µM

# return recorded TGI for entry `CCCNC(=O)c1cc(OC)c(OC)cc1NC(=O)C12CC3CC(CC(C3)C1)C2`
> 100 µM

# return recorded TGI for entry `CCCCCCNC(=O)CCN(C(=O)O)S(=O)(=O)c1ccc(NC(=O)c2ccccc2)cc1`
> 71.1 µM

# return recorded TGI for entry CCCOC(=O)CCC(NC(=O)c1ccc(Nc2nc3ccccc3nc2-c2cccs2)cc1)C(=O)OCCC (configuration not stated)
> 100 µM

* * *

tested on: BT-549 breast; experiment: NCI tumour cell line growth inhibition, 48 h
Let's look at some compounds and their measured TGI.

Example entries begin here.
| compound | TGI |
| --- | --- |
| O=C(NCCN1CCOCC1)c1cc2c(Oc3ccc(NC(=O)C4(C(=O)Nc5ccc(F)cc5)CC4)cc3)ccnc2[nH]1 | > 54.8 µM |
| O=C(O)c1ccccc1Sc1ccc(C=C2NC(=S)N(c3ccccc3)C2=O)s1 | > 100 µM |
| C=CCN(C(C)=O)c1cc(OCc2ccccc2)c2c(c1)c(C)cn2S(=O)(=O)c1ccccc1 | > 100 µM |
| C[N+]1(CC[N+]2(C)CCCC2c2cccnc2)CCCC1c1cccnc1 (stereo not given) | > 100 µM |
| O=C(Nc1c[nH]c(=O)[nH]c1=O)Oc1ccccc1 | > 100 µM |

# return recorded TGI for entry `CNC(=O)c1sc(-n2cnc3cc(OC)c(OC)cc32)cc1OCc1ccccc1C(F)(F)F`
> 25 µM

# return recorded TGI for entry `Oc1ccccc1/C=N\NC(=S)Nc1ccc(F)cc1`
> 89.9 µM

# return recorded TGI for entry `Cc1csc(NCc2ccc(Cl)cc2)n1`
> 100 µM

# return recorded TGI for entry COc1cccc2c1C(=O)c1c(O)c3c(c(O)c1C2=O)C[C@@](O)(C(C)=O)C[C@@H]3OC1CC(N(Cc2ccccc2)Cc2ccccc2)C(O)C(C)O1 (stereo not given in full)
> 50 µM

# return recorded TGI for entry `CN(N=O)c1ccc(/C=C/c2ccnc3ccccc23)cc1`
> 100 µM
